The reported measurements were obtained from ChEMBL document CHEMBL1143643.

- Species on record: Oryctolagus cuniculus
- Assay notes: In vitro inhibitory effects on arachidonic acid induced rabbit platelet aggregation upon incubation at 37 degree C for 4 minutes
- Format: functional
Reported endpoint: IC50 (µM)
Quick reminder: number only, in µM, skip the unit.

Data point: COc1cc(/C=C/C(=O)c2c(O)cc(O)cc2O)ccc1OCc1ccccc1 ; IC50 = 28.5
